Source of measurements: patent US11370775B2

biological target: porcine kidney DAO (Sus scrofa)
Sequence (P00371 whole entry): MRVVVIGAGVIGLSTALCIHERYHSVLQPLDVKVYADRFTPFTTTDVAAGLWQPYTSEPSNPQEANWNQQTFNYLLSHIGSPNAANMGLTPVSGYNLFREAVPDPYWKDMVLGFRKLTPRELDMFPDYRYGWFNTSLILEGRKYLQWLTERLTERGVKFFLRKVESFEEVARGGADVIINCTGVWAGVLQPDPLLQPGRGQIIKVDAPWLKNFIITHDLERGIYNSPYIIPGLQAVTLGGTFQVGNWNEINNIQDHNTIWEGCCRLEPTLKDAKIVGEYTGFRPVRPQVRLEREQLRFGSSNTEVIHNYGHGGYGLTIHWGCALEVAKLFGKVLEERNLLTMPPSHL
MEASURED ATTRIBUTE: IC50
Write the quantity with the unit trailing the number.

Worked examples, 3 molecules total:
>  <MOLECULE>
COc1c(C)cnc(C[S+]([O-])c2nc3cc(OC(C)=O)ccc3[nH]2)c1C (centres unmarked) [compound 21122]

>  <IC50>
21.1 µM

$$$$
>  <MOLECULE>
COc1c(C)cnc(C[S+]([O-])c2nc3cc(OP(=O)(Oc4ccccc4)Oc4ccccc4)ccc3[nH]2)c1C (centres unmarked) [compound 13084]

>  <IC50>
181 µM

$$$$
>  <MOLECULE>
COC(=O)c1ccc2c(c1)N=C(N(Cc1ncc(C)c(OC)c1C)Cc1ncc(C)c(OC)c1C)N(Cc1ccco1)C2 [compound 26072]

>  <IC50>
236 µM

$$$$

Below is a list of molecules. For each, state its recorded IC50.
1. COc1c(C)cnc(C[S+]([O-])c2nc3ccc(O)cc3[nH]2)c1C (centres unmarked) [RS-D7, reference compound]
2. O=c1[nH]oc2ccc(Cl)cc12 [CBIO, reference compound]

["1.19 µM", "0.583 µM"]

###

Hi there, I'd appreciate the recorded Relative DAO activity normalize to DMSO at Final Conc. 100 uM for every entry that follows.
molecular target: DAO in SK-N-SH neuroblastoma cells (Homo sapiens, UniProt P14920); construct: endogenous in cells; host or cells: SK-N-SH neuroblastoma cells (ATCC); experiment: Cell-based DAO assay in SK-N-SH cells; parameters: key: fraction of DMSO-control DAO activity (1 = DMSO); conditions: SK-N-SH 1.25*10^5 cells/well, drug treated for 3.5 hr, 100 uM
Sequence (P14920 whole entry): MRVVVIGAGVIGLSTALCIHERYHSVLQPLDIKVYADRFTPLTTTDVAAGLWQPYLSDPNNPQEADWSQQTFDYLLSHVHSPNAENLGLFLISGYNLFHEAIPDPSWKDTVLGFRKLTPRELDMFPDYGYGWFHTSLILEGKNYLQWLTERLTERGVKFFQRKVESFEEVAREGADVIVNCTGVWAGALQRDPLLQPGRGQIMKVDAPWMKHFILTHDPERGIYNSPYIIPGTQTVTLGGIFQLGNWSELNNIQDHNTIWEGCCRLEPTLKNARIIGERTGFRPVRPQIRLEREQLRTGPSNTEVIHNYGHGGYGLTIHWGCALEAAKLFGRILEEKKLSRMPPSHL
Numbers only.

>  <COMPOUND>
COc1c(C)cnc(C[S+]([O-])c2nc3cc(OC(=O)c4ccco4)ccc3[nH]2)c1C (centres unmarked)

>  <TEST RESULT>
0.57

$$$$
>  <COMPOUND>
COc1c(C)cnc(C[S+]([O-])c2nc3ccc(O)cc3[nH]2)c1C (centres unmarked) [RS-D7, reference compound]

>  <TEST RESULT>
0.69

$$$$
>  <COMPOUND>
COc1c(C)cnc(CSc2nc3cc(C(=O)O)ccc3n2CCC2=CCCCC2)c1C

>  <TEST RESULT>
0.48

$$$$
>  <COMPOUND>
COc1ccc(C(=O)Oc2ccc3[nH]c([S+]([O-])Cc4ncc(C)c(OC)c4C)nc3c2)cc1 (centres unmarked)

>  <TEST RESULT>
0.67

$$$$
>  <COMPOUND>
COC(=O)c1ccc2c(c1)N=C(NCc1ncc(C)c(OC)c1C)N(CCC1=CCCCC1)C2

>  <TEST RESULT>
0.77

$$$$

// each listed compound needs a value for Relative DAO activity normalize to DMSO at Final Conc. 100 uM
1. O=c1[nH]oc2ccc(Cl)cc12 [CBIO, reference compound]
2. COc1c(C)cnc(C[S+]([O-])c2nc3cc(OC(=O)OC(C)(C)C)ccc3[nH]2)c1C (centres unmarked)
3. COc1c(C)cnc(C[S+]([O-])c2nc3cc(OC(C)=O)ccc3[nH]2)c1C (centres unmarked)

0.83
0.61
0.50

###

biological target: DAO in SK-N-SH neuroblastoma cells (Homo sapiens, UniProt P14920); construct: endogenous in cells; host or cells: SK-N-SH neuroblastoma cells (ATCC); experiment: Cell-based DAO assay in SK-N-SH cells; conditions: SK-N-SH 1.25*10^5 cells/well, drug treated for 3.5 hr, 50 mM D-serine
I'd appreciate it if you could supply pIC50 values for the items below.
Answers are plain numbers, as −log10 of the molar value.

Solved cases (3 shown):
>  <MOLECULE>
COc1c(C)cnc(C[S+]([O-])c2nc3cc(OC(C)=O)ccc3[nH]2)c1C (stereo not shown)

>  <pIC50>
3.83

$$$$
>  <MOLECULE>
COc1c(C)cnc(C[S+]([O-])c2nc3cc(OC(=O)C4CCC4)ccc3[nH]2)c1C (stereo not shown)

>  <pIC50>
3.62

$$$$
>  <MOLECULE>
COc1c(C)cnc(C[S+]([O-])c2nc3cc(OC(=O)c4ccco4)ccc3[nH]2)c1C (stereo not shown)

>  <pIC50>
3.83

$$$$

Would you kindly look at the next entry?
Given C/C=C\C(=O)Oc1ccc2[nH]c([S+]([O-])Cc3ncc(C)c(OC)c3C)nc2c1 (stereo not shown) , state its recorded pIC50. 3.97

###

Exercise: state measured Relative DAO activity normalize to DMSO at Final Conc. 100 uM for each of the molecules provided.
target: DAO in SK-N-SH neuroblastoma cells (Homo sapiens, UniProt P14920); construct: endogenous in cells; host or cells: SK-N-SH neuroblastoma cells (ATCC); assay: Cell-based DAO assay in SK-N-SH cells; design: key: fraction of DMSO-control DAO activity (1 = DMSO); conditions: SK-N-SH 1.25*10^5 cells/well, drug treated for 3.5 hr, 100 uM
Numbers only.

>  <MOLECULE>
COc1c(C)cnc(C[S+]([O-])c2nc3cc(OC(=O)C=C(C)C)ccc3[nH]2)c1C (stereo not drawn)

>  <TEST RESULT>
0.50

$$$$

Quick request: Relative DAO activity normalize to DMSO at Final Conc. 100 uM for each listed item, please.
1. COc1c(C)cnc(C[S+]([O-])c2nc3cc(OC(=O)C4CCC4)ccc3[nH]2)c1C (stereo not drawn)
2. COc1c(C)cnc(C[S+]([O-])c2nc3cc(OC(=O)Cc4ccccc4)ccc3[nH]2)c1C (stereo not drawn)

1: 0.69; 2: 0.58

###

target: DAO in SK-N-SH neuroblastoma cells (Homo sapiens, UniProt P14920); construct: endogenous in cells; experiment: Cell-based DAO assay in SK-N-SH cells; settings: SK-N-SH 1.25*10^5 cells/well, drug treated for 3.5 hr, 50 mM D-serine
I'd be grateful if you could share measured pIC50 for these entries.
Numbers only, as −log10 of the molar value.

Answered examples (3):
>  <COMPOUND>
COC(=O)c1ccc2c(c1)N=C(N(Cc1ncc(C)c(OC)c1C)Cc1ncc(C)c(OC)c1C)N(Cc1ccco1)C2

>  <EXPERIMENTAL TARGET>
DAO in SK-N-SH neuroblastoma cells (Homo sapiens, UniProt P14920)

>  <pIC50>
3.41

$$$$
>  <COMPOUND>
COC(=O)c1ccc2c(c1)N=C(NCc1ncc(C)c(OC)c1C)N(CCC1=CCCCC1)C2

>  <EXPERIMENTAL TARGET>
DAO in SK-N-SH neuroblastoma cells (Homo sapiens, UniProt P14920)

>  <pIC50>
3.32

$$$$
>  <COMPOUND>
COc1ccc(C(=O)Oc2ccc3[nH]c([S+]([O-])Cc4ncc(C)c(OC)c4C)nc3c2)cc1 (stereo not shown)

>  <EXPERIMENTAL TARGET>
DAO in SK-N-SH neuroblastoma cells (Homo sapiens, UniProt P14920)

>  <pIC50>
3.66

$$$$

For each of the compounds below, note its pIC50.
1. COc1c(C)cnc(C[S+]([O-])c2nc3cc(OC(=O)C4CC4)ccc3[nH]2)c1C (stereo not shown)
2. COc1c(C)cnc(C[S+]([O-])c2nc3cc(OC(=O)OC(C)(C)C)ccc3[nH]2)c1C (stereo not shown)
3. COc1c(C)cnc(CN(Cc2ncc(C)c(OC)c2C)c2nc3cc(C(=O)O)ccc3n2CCC2=CCCCC2)c1C

1. 3.87
2. 3.76
3. 3.66

###

Molecular target: DAO in SK-N-SH neuroblastoma cells (Homo sapiens, UniProt P14920)
Construct: endogenous in cells; host or cells: SK-N-SH neuroblastoma cells (ATCC)
Assay: Cell-based DAO assay in SK-N-SH cells
Set-up: key: fraction of DMSO-control DAO activity (1 = DMSO)
Settings: SK-N-SH 1.25*10^5 cells/well, drug treated for 3.5 hr, 10 uM
Procedure: The SK-N-SH neuroblastoma cell line was purchased from American Type Culture Collection (ATCC). It was cultured in MEM media (Invitrogen/GIBCO, Rockville, Md.) supplemented with 10% fetal bovine serum, 1×NEAA (Invitrogen/GIBCO) at 37° C. with 5% CO2 in a humidified atmosphere. Cells were trypsinized and plated into a black 96-well plate (NUNC No. 237108) at a density of 125,000 cells/well in 50 μl before cell-based DAO assay. […]
Returns one of MET or NOT MET; MET when Relative DAO activity normalize to DMSO at Final Conc. 10 uM is >= 1.

Examples from the recorded data:
>  <COMPOUND>
COc1ccc(C(=O)Oc2ccc3[nH]c([S+]([O-])Cc4ncc(C)c(OC)c4C)nc3c2)cc1 (centres unmarked)

>  <ASSIGNED CLASS>
NOT MET

$$$$
>  <COMPOUND>
COc1c(C)cnc(C[S+]([O-])c2nc3cc(OC(=O)OC(C)(C)C)ccc3[nH]2)c1C (centres unmarked)

>  <ASSIGNED CLASS>
NOT MET

$$$$
>  <COMPOUND>
COc1c(C)cnc(CN(Cc2ncc(C)c(OC)c2C)c2nc3cc(C(=O)O)ccc3n2CCC2=CCCCC2)c1C

>  <ASSIGNED CLASS>
NOT MET

$$$$
>  <COMPOUND>
COc1c(C)cnc(CSc2nc3cc(C(=O)O)ccc3n2CCC2=CCCCC2)c1C

>  <ASSIGNED CLASS>
NOT MET

$$$$
>  <COMPOUND>
COc1c(C)cnc(C[S+]([O-])c2nc3cc(OC(=O)C4CCC4)ccc3[nH]2)c1C (centres unmarked)

>  <ASSIGNED CLASS>
MET

$$$$
>  <COMPOUND>
COc1c(C)cnc(C[S+]([O-])c2nc3cc(OC(=O)C=C(C)C)ccc3[nH]2)c1C (centres unmarked)

>  <ASSIGNED CLASS>
NOT MET

$$$$
>  <COMPOUND>
C/C=C\C(=O)Oc1ccc2[nH]c([S+]([O-])Cc3ncc(C)c(OC)c3C)nc2c1 (centres unmarked)

>  <ASSIGNED CLASS>
NOT MET

$$$$
>  <COMPOUND>
COc1c(C)cnc(C[S+]([O-])c2nc3cc(OC(=O)Cc4ccccc4)ccc3[nH]2)c1C (centres unmarked)

>  <ASSIGNED CLASS>
MET

$$$$
>  <COMPOUND>
COc1c(C)cnc(C[S+]([O-])c2nc3cc(OP(=O)(Oc4ccccc4)Oc4ccccc4)ccc3[nH]2)c1C (centres unmarked)

>  <ASSIGNED CLASS>
NOT MET

$$$$
>  <COMPOUND>
COC(=O)c1ccc2c(c1)N=C(N(Cc1ncc(C)c(OC)c1C)Cc1ncc(C)c(OC)c1C)N(Cc1ccco1)C2

>  <ASSIGNED CLASS>
NOT MET

$$$$

Given the entry COc1c(C)cnc(C[S+]([O-])c2nc3ccc(O)cc3[nH]2)c1C (centres unmarked) [RS-D7, reference compound] , answer whether its Relative DAO activity normalize to DMSO at Final Conc. 10 uM meets or surpasses 1. MET

Given COc1c(C)cnc(C[S+]([O-])c2nc3cc(OC(=O)C4CC4)ccc3[nH]2)c1C (centres unmarked) , state whether its Relative DAO activity normalize to DMSO at Final Conc. 10 uM is at least 1. NOT MET
